measurement_target: Human immunodeficiency virus type 1 protease (Human immunodeficiency virus 1, UniProt Q72874)
Documented pIC50 across a set of compounds
On this scale, pIC50 is minus log10 of a concentration expressed in M (mol/L).

# compound, pIC50
data = [
    ("CC(C)[C@H](NC(=O)OCc1ccccc1)C(=O)N[C@@H](Cc1ccccc1)CC1(C[C@H](Cc2ccccc2)NC(=O)[C@@H](NC(=O)OCc2ccccc2)C(C)C)CCC(=O)N1", 5.57),
]

Prompt: # get_value(readout='pIC50', item= CC(C)(C)OC(=O)N[C@H](CC[C@H](O)[C@H](Cc1ccccc1)NC(=O)OC(C)(C)C)Cc1ccccc1 )
Completion: 6.42

Prompt: # get_value(readout='pIC50', item= O=C(Nc1ccccc1C(=O)N[C@H](CC[C@H](O)[C@H](Cc1ccccc1)NC(=O)c1ccccc1NC(=O)OCc1ccccn1)Cc1ccccc1)OCc1ccccn1 )
Completion: 7.85

Prompt: # get_value(readout='pIC50', item= CC(C)C(NC(=O)OCc1ccccc1)C(=O)N[C@H](CC[C@@H](O)[C@H](Cc1ccccc1)NC(=O)C(NC(=O)OCc1ccccc1)C(C)C)Cc1ccccc1 (stereo partly drawn) )
Completion: 6.70

Prompt: # get_value(readout='pIC50', item= CC(C)C(NC(=O)OCc1ccccc1)C(=O)N[C@@H](Cc1ccccc1)CC(C[C@H](Cc1ccccc1)NC(=O)C(NC(=O)OCc1ccccc1)C(C)C)[N+](=O)[O-] (stereo partly drawn) )
Completion: 5.82

* * *

Record: IC50 reported on Human immunodeficiency virus type 1 protease (Human immunodeficiency virus 1).

# compound, IC50
records = [
    ("O=C(N[C@H](CC[C@H](O)[C@H](Cc1ccccc1)NC(=O)c1ccccc1NS(=O)(=O)c1ccccn1)Cc1ccccc1)c1ccccc1NS(=O)(=O)c1ccccn1", "> 3000 nM"),
]

Prompt: GET /values?readout=IC50&system=Human immunodeficiency virus type 1 protease (Human immunodeficiency virus 1)&item= CC(C)[C@H](NC(=O)N(C)Cc1ccccn1)C(=O)N[C@@H](Cc1ccccc1)[C@H](O)[C@H](O)[C@H](Cc1ccccc1)NC(=O)[C@@H](NC(=O)N(C)Cc1ccccn1)C(C)C [A-77003]
Completion: > 1 nM

Prompt: GET /values?readout=IC50&system=Human immunodeficiency virus type 1 protease (Human immunodeficiency virus 1)&item= CC(C)C(NC(=O)OCc1ccccc1)C(=O)N[C@H](CC[C@H](O)[C@H](Cc1ccccc1)NC(=O)C(NC(=O)OCc1ccccc1)C(C)C)Cc1ccccc1 (stereo partly drawn)
Completion: > 1 nM
